Molecular target: human butyrylcholinesterase (hBuChE) (Homo sapiens)
Construct: from human plasma was from Vivonics (Bedford, MA, USA); purchased Vivonics (Bedford, MA, USA); host or cells: human plasma
Sequence (P06276 29-602): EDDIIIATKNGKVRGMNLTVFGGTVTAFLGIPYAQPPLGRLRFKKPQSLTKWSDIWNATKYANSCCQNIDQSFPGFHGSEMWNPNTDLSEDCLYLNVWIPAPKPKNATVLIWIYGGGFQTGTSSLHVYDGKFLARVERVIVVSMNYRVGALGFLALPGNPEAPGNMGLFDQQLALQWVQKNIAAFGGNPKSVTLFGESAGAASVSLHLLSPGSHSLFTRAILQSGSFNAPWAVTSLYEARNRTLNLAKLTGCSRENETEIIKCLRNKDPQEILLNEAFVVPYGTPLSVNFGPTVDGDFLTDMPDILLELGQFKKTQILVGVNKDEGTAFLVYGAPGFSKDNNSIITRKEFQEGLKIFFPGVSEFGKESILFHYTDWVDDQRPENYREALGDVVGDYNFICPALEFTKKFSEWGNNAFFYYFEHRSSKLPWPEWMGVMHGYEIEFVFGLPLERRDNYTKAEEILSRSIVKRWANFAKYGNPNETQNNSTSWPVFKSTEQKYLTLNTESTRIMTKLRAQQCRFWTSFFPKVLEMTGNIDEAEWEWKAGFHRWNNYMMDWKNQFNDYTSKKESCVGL
Experiment: biochemical
Conditions: inhibitor concentration 1 μM; read-out: hBuChE % inh.
MEASURED_QUANTITY: inhibition at 1 µM
Write your answer as a measured quantity: the number, then the unit.

[
  {
    "SMILES_REPRESENTATION": "O=C(CC(c1ccccc1)c1ccccc1)N[C@@H](Cc1ccccc1)[C@@H](O)CNCc1ccccc1",
    "SYSTEM_UNDER_TEST": "human butyrylcholinesterase (hBuChE) (Homo sapiens)",
    "inhibition at 1 µM": "67.7%"
  },
  {
    "SMILES_REPRESENTATION": "CC(C)(C)c1cccc(CNC[C@@H](O)[C@H](Cc2ccccc2)NC2c3ccccc3-c3ccccc32)c1",
    "SYSTEM_UNDER_TEST": "human butyrylcholinesterase (hBuChE) (Homo sapiens)",
    "inhibition at 1 µM": "68%"
  },
  {
    "SMILES_REPRESENTATION": "COc1cccc(CNC[C@H](O)[C@H](Cc2ccccc2)NC2c3ccccc3-c3ccccc32)c1",
    "SYSTEM_UNDER_TEST": "human butyrylcholinesterase (hBuChE) (Homo sapiens)",
    "inhibition at 1 µM": "67.7%"
  }
]

Next compound, inhibition at 1 µM to be filled in.
Query string: Tell me measured inhibition at 1 µM for O[C@@H](CNCC1CCCCC1)[C@H](Cc1ccccc1)NC1c2ccccc2-c2ccccc21 please.
Result string: 76.5%
